molecular target: acetylcholine receptor; assay: SPR, AchR immobilised on CM5 chip, peptide 10 uM
result.type: Binding affinity (RU)

{"binder": "RKPTNR [6mer-1-937]", "Binding affinity (RU)": 34}
{"binder": "KRYPDR [6mer-1-988]", "Binding affinity (RU)": 24}
{"binder": "RKPTDR [6mer-1-1007]", "Binding affinity (RU)": 39}
{"binder": "KFHARR [6mer-2-603]", "Binding affinity (RU)": 32}
